The following binders are listed with their measured RKO Assay % inhibition values.
Molecular target: T1, human ENTPD2, full length, on cells (human, UniProt Q9Y5L3 1-495); also: test concentration or dose not given here
T1 sequence: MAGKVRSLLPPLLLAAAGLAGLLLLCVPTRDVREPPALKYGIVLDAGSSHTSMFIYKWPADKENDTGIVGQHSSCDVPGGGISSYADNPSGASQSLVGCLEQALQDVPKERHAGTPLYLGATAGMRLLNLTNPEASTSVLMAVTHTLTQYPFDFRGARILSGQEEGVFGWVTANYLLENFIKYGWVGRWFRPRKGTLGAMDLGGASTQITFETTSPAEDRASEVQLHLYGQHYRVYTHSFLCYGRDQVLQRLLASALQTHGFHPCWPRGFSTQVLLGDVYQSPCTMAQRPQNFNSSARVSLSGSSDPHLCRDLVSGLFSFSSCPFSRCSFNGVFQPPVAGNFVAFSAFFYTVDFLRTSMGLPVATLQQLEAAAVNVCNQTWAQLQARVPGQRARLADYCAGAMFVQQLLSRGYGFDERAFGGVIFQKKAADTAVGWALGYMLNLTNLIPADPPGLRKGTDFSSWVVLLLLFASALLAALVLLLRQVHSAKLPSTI
Experiment: cell-based or functional assay

binder	RKO Assay % inhibition / %
ANTI-HUMAN ENTPD2 MAB6 (antibody, human IgG1, kappa, V domains shown) VH: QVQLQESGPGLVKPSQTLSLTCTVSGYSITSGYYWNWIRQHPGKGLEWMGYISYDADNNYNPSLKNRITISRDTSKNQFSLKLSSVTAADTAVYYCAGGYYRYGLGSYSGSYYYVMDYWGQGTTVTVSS VL: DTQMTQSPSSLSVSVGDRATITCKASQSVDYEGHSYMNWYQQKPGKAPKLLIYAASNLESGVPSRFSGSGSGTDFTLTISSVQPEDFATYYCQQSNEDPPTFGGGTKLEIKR	90
ANTI-HUMAN ENTPD2 MAB8 (antibody, human IgG1, lambda, V domains shown) VH: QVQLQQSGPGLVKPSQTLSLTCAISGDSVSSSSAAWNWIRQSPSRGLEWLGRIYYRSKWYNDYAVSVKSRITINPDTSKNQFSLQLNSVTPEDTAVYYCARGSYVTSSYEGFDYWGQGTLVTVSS VL: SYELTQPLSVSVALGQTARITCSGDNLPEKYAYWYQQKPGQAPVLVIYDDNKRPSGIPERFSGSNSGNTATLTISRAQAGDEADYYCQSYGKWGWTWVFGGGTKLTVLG	95
ANTI-HUMAN ENTPD2 MAB3 (antibody, human IgG1, kappa, V domains shown) VH: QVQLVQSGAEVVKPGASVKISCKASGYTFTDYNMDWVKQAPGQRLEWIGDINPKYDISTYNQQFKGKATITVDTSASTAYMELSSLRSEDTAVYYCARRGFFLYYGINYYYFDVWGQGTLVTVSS VL: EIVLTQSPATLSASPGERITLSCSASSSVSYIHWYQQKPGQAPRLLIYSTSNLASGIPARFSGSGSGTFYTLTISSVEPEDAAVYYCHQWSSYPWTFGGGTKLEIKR	95
